Reference source: patent US5182290A

Kindly state IC50 for each of the entries shown.
target: GABAa receptor; assay: Inhibition of 3H-RO15-1788 (3H-Flumazenil) binding to rat cortical tissue (GABAa receptor assay); conditions: 3H-RO15-1788 0.5 nM, rat cortical tissue, 30 min at 4° C.
Note: unit µM is implicit; provide only the numeric part.

(Q) Name the recorded IC50 for O=c1[nH]c2ccccc2c2oc(-c3ccccc3)nc12 .
(A) 0.095

(Q) What would you report for COc1ccc(-c2nc3c(=O)[nH]c4ccccc4c3o2)cc1 ?
(A) 0.125

(Q) Now the molecule COc1cccc(-c2nc3c(=O)[nH]c4ccccc4c3o2)c1
(A) 0.6
